Just for reference, patent US20160318933A1 is where these values come from.

Listing of recorded pEC50 by entry.
# TGT: human brain-derived dopamine D4 receptor (Homo sapiens)
# Sequence (P21917 1-419): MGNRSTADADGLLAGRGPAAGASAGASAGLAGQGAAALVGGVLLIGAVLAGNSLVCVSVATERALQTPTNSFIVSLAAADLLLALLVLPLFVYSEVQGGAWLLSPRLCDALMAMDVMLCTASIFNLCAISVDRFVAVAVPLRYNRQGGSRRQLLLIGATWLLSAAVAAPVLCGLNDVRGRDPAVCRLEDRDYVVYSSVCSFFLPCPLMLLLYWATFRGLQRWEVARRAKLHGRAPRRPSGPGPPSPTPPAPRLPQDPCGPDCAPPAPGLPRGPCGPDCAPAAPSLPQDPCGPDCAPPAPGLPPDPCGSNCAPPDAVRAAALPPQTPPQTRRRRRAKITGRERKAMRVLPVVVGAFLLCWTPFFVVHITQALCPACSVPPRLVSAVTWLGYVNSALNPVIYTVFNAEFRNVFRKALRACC
# METHOD NOTES: Agonistic activity in G protein dependent pathway of dopamine D4 receptor (aequorin intracellular calcium luminescence, FDSS)
# CONDITION CONTEXT: concentration required to achieve a 50% response of Emax; CHO-K1 or HEK293 cells transfected with D4 receptor
# Protocol: The G protein dependent pathway is a pathway for transmitting signals in cells via a second messenger by stimulating a G protein through the binding of guanosine triphosphate (GTP) to the G protein. […] The agonistic activities of the present compounds in the G protein dependent pathway were evaluated on the basis of intracellular calcium levels as follows. […]
pEC50: −log10 of the molar value.

MOLECULE	pEC50
Cc1ncc(CN2CCn3nc(-c4ncccc4F)cc3C2)cn1 [Example 171]	6.60
Cc1cccc(CN2CCn3nc(-c4ncccc4C(F)(F)F)cc3C2)n1 [Example 152]	6.97
Cc1ccc(CN2CCn3nc(-c4ncccn4)cc3C2)cc1 [Example 176]	7.39
Cc1n[nH]c2ccc(CN3CCn4nc(-c5ccccn5)cc4C3)cc12 [Example 37]	7.21

---

# TGT: human brain-derived dopamine D4 receptor (Homo sapiens)
# Construct: expressed in transfected cells; host or cells: CHO (CHO-K1) or HEK293 cells
# METHOD NOTES: Agonistic activity in G protein dependent pathway of dopamine D4 receptor (aequorin intracellular calcium luminescence, FDSS)
# Format: cell-based
# CONDITION CONTEXT: read-out: Maximal activity on D4 receptor (%)
Recorded Emax, one value per entry.

SMILES ENTRY	RESULT UNIT	Emax
Cc1nc(CN2CCn3nc(-c4ncccc4C)cc3C2)cs1	%	56
Cc1ncc(CN2CCn3nc(-c4ccccn4)c(C)c3C2)c(N)n1	%	82
Cc1ccccc1CN1CCn2nc(-c3ccccn3)cc2C1	%	49
Cn1c(CN2CCn3nc(-c4ncccc4F)cc3C2)cc2ccccc21	%	71
Cc1ncc(CN2CCn3nc(-c4ccccn4)c(Cl)c3C2)c(N)n1	%	53
Cc1cnc(CN2CCn3nc(-c4ncccc4F)cc3C2)cn1	%	64
Cc1cccnc1-c1cc2n(n1)CCN(Cc1n[nH]c3ccc(F)cc13)C2	%	98
Cc1cccc(CN2CCn3nc(-c4ccccn4)cc3C2)c1	%	62
Cc1cccnc1-c1cc2n(n1)CCN(Cc1ccc(CF)c(C)n1)C2	%	63
Fc1cccnc1-c1cc2n(n1)CCN(Cc1ccc(C(F)(F)F)cn1)C2	%	57
Cc1ccc(CN2CCn3nc(-c4ccccn4)cc3C2)nc1N	%	54
Cc1cccnc1-c1nn2c(c1C)CN(Cc1ccc(C(F)(F)F)cc1)CC2	%	53
Cc1cnc(CN2CCn3nc(-c4ncccc4C)cc3C2)cn1	%	57
CC(C)c1ncc(CN2CCn3nc(-c4ncccc4F)cc3C2)cn1	%	50
Cc1cccnc1-c1cc2n(n1)CCN(Cc1ccc([N+](=O)[O-])cc1)C2	%	69
Cc1cccnc1-c1cc2n(n1)CCN(Cc1nc3ccccc3[nH]1)C2	%	49
Cc1cccnc1-c1cc2n(n1)CCN(Cc1cccc(OC(F)(F)F)c1)C2	%	40
Cc1c(-c2ncccc2F)nn2c1CN(Cc1ccc(C(F)F)cn1)CC2	%	38
Fc1cccnc1-c1cc2n(n1)CCN(Cc1ccccc1)C2	%	83

---

Each entry below carries its reported Emax.
# TGT: human brain-derived dopamine D4 receptor (Homo sapiens, UniProt P21917)
# Construct: expressed in transfected cells; host or cells: CHO (CHO-K1) or HEK293 cells
# Sequence (P21917 1-419): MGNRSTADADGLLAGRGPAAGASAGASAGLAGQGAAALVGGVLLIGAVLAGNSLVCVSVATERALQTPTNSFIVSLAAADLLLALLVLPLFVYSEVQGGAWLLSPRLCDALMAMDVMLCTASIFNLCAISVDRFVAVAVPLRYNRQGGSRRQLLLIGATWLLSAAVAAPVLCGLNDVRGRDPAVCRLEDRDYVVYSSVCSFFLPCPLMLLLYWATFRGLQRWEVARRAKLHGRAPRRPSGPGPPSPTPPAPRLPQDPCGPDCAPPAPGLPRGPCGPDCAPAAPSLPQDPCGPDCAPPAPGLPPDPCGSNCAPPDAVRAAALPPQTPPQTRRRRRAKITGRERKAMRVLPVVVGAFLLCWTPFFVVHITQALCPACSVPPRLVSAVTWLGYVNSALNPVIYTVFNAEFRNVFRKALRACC
# METHOD NOTES: Agonistic activity in G protein dependent pathway of dopamine D4 receptor (aequorin intracellular calcium luminescence, FDSS)
# Assay type: cell-based
# CONDITION CONTEXT: read-out: Maximal activity on D4 receptor (%)
Structures can show the parent of a compound that is named as a salt.

COMPOUND	TGT	Emax, %
Cc1cccnc1-c1cc2n(n1)CCN(Cc1ccc(OC(F)(F)F)c(F)c1)C2 [Example 177, monohydrochloride]	human brain-derived dopamine D4 receptor (Homo sapiens, UniProt P21917)	39
Cc1cccnc1-c1cc2n(n1)CCN(Cc1ccc3c(c1)N(C)C(=O)CC3)C2	human brain-derived dopamine D4 receptor (Homo sapiens, UniProt P21917)	45
Fc1ccc(CN2CCn3nc(-c4ncccc4F)cc3C2)cn1	human brain-derived dopamine D4 receptor (Homo sapiens, UniProt P21917)	80
Fc1cccnc1-c1cc2n(n1)CCN(Cc1ccc3c(n1)CCCC3)C2	human brain-derived dopamine D4 receptor (Homo sapiens, UniProt P21917)	71

---

# TGT: human brain-derived dopamine D4 receptor (Homo sapiens, UniProt P21917)
# Sequence (P21917 1-419): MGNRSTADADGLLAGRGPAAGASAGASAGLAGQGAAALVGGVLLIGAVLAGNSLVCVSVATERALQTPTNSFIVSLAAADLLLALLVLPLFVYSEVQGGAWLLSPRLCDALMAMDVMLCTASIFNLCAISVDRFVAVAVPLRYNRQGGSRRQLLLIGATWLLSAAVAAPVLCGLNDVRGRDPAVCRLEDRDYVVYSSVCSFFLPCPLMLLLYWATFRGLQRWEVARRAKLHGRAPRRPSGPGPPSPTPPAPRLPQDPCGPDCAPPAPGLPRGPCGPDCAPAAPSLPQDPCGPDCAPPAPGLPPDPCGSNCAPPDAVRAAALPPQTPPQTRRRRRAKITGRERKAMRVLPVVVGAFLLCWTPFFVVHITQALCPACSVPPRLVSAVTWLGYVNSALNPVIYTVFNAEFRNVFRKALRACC
# METHOD NOTES: Agonistic activity in G protein dependent pathway of dopamine D4 receptor (aequorin intracellular calcium luminescence, FDSS)
# CONDITION CONTEXT: concentration required to achieve a 50% response of Emax; CHO-K1 or HEK293 cells transfected with D4 receptor
Friendly reminder: EC50 below 50 nM is 1 (yes), at or above is 0 (no).

SMILES ENTRY	CLASS NAME
Cc1ncc(CN2CCn3nc(-c4ncccc4C)c(C)c3C2)cn1	0 (no)
Cn1nc(CN2CCn3nc(-c4ncccc4C(F)(F)F)cc3C2)c2ccccc21	0 (no)
Fc1c(-c2ccccn2)nn2c1CN(Cc1ccccc1)CCC2	0 (no)
Cc1cccnc1-c1cc2n(n1)CCN(Cc1ccc(C(F)(F)F)nc1N)C2	0 (no)
Cc1cccnc1-c1cc2n(n1)CCN(Cc1ccc3c(c1)N(C)C(=O)CS3)C2	0 (no)
Cc1ccc(CN2CCn3nc(-c4ncccc4C)cc3C2)cc1	1 (yes)
Cc1c(-c2ccccn2)nn2c1CN(Cc1ccccc1)CC2	1 (yes)
Cc1cccnc1-c1cc2n(n1)CCN(Cc1cn3c(n1)CCCC3)C2	0 (no)
Cc1cccnc1-c1cc2n(n1)CCN(Cc1cn(C)c3ccccc13)C2	1 (yes)
Cc1ncc(CN2CCn3nc(-c4ccccn4)c(C)c3C2)c(N)n1	0 (no)
Cc1c(-c2ncccc2F)nn2c1CN(Cc1ccc(C(F)(F)F)nc1)CC2	0 (no)
c1ccc(-c2cc3n(n2)CCN(Cc2cccc4[nH]cnc24)C3)nc1	0 (no)
Cc1cccnc1-c1cc2n(n1)CCN(Cc1ccc3c(n1)CCCC3)C2	1 (yes)
Fc1ccc(CN2CCCn3nc(-c4ccccn4)cc3C2)cc1	0 (no)
Cc1cccnc1-c1cc2n(n1)CCN(Cc1ccc(OC(F)(F)F)cc1F)C2	0 (no)
Cc1cccnc1-c1nn2c(c1C)CN(Cc1ccc(C(F)(F)F)nc1)CC2	0 (no)
Cc1cccnc1-c1cc2n(n1)CCN(Cc1cnc(C(F)F)nc1)C2	0 (no)
Cc1c(-c2ccccn2)nn2c1CN(Cc1ccc(CF)nc1)CC2	1 (yes)
Cc1ccc(CN2CCn3nc(-c4ncccc4F)c(C)c3C2)cc1	1 (yes)
Cc1cnc(CN2CCn3nc(-c4ncccc4C)cc3C2)cn1	0 (no)
Cc1cccnc1-c1cc2n(n1)CCN(Cc1cc3c(cn1)OCCC3)C2	0 (no)
Cc1ccc(CN2CCn3nc(-c4ncccc4C)c(Cl)c3C2)nc1	0 (no)
Cc1cc(CN2CCn3nc(-c4ncccc4C)cc3C2)cnc1C	1 (yes)
Cc1cccnc1-c1cc2n(n1)CCN(Cc1cnc(C)c(Cl)c1)C2	0 (no)
c1ccc(CN2CCn3nc(-c4ccccn4)cc3C2)cc1	1 (yes)
Cc1c(-c2ccccn2)nn2c1CN(Cc1ccc(C#N)cc1)CC2	1 (yes)
Cc1cccnc1-c1cc2n(n1)CCN(Cc1ccc3cn[nH]c3c1)C2	1 (yes)
Cc1cccnc1-c1cc2n(n1)CCN(Cc1cnc(C(C)C)nc1)C2	1 (yes)
Cc1ccc(CN2CCn3nc(-c4ccccn4)c(C)c3C2)cc1	1 (yes)
Fc1cccnc1-c1cc2n(n1)CCN(Cc1cnc(C(F)F)nc1)C2	0 (no)
Cn1cc(CN2CCn3nc(-c4ncccc4F)cc3C2)c2ccccc21	1 (yes)
Cc1ncc(CN2CCn3nc(-c4ncccc4C)cc3C2)c(N)n1	0 (no)
Cc1cccnc1-c1cc2n(n1)CCN(Cc1n[nH]c3cc(F)ccc13)C2	1 (yes)
Cc1c(-c2ccccn2)nn2c1CN(Cc1ccc(C(F)(F)F)cc1)CC2	0 (no)
Cc1ccccc1CN1CCn2nc(-c3ccccn3)cc2C1	0 (no)
